Please provide measured CC50 for the entries that follow.
Test system: PC-3
ASSAY_NOTES: cells
RUN_CONDITIONS: Homo sapiens, PC-3, 48 h, read-out: LC50

// query For O=C1/C(=C/C(Cl)=C/c2ccc([N+](=O)[O-])cc2)SC(=S)N1c1ccc(O)cc1 [Compound 2f] , write its CC50.
// result > 100 µM

// query Tell me CC50 reported for O=C(O)C(Cc1ccccc1)N1C(=O)/C(=C/C(Cl)=C/c2ccc([N+](=O)[O-])cc2)SC1=S (centres unmarked) [Compound 2j]
// result > 100 µM

// query Indicate its recorded CC50; the compound in question is O=C1/C(=C/C(Cl)=C/c2ccc([N+](=O)[O-])cc2)SC(=S)N1/N=C\C(Cl)=C\c1ccc([N+](=O)[O-])cc1 [Compound 2c]
// result > 100 µM

// query Entry O=C1NC(=S)S/C1=C\C(Cl)=C\c1ccc([N+](=O)[O-])cc1 [Compound 2b] needs its CC50 filled in; supply it.
// result > 50 µM

// query Look up and report measured CC50 for this entry: O=C(O)CCN1C(=O)/C(=C/C(Cl)=C/c2ccc([N+](=O)[O-])cc2)SC1=S [Compound 2h]
// result 41.9 µM

----------
System: M14
READOUT_KIND: GI50 (µM)
Your answer is read as µM, so omit the unit and give the number.

// query Answer with the recorded GI50 for the molecule listed here: O=C1/C(=C/C(Cl)=C/c2ccc([N+](=O)[O-])cc2)SC(=S)N1c1ccc(O)cc1
// result 1.9

// query Return GI50 (reported value) for this molecule: O=C(O)CCN1C(=O)/C(=C/C(Cl)=C/c2ccc([N+](=O)[O-])cc2)SC1=S
// result 1.66

// query Give recorded GI50. O=C1/C(=C/C(Cl)=C/c2ccc([N+](=O)[O-])cc2)SC(=S)N1/N=C\C(Cl)=C\c1ccc([N+](=O)[O-])cc1
// result 16.2

// query Identify GI50 associated with the molecule O=C1NC(=S)S/C1=C\C(Cl)=C\c1ccc([N+](=O)[O-])cc1
// result 8.87

// query Indicate the recorded GI50 value for this molecule: O=C(O)C(Cc1ccccc1)N1C(=O)/C(=C/C(Cl)=C/c2ccc([N+](=O)[O-])cc2)SC1=S (centres unmarked)
// result 2.53

----------
Would you mind telling me the reported CC50 of each entry?
System: HCT-116
ASSAY_NOTES: cells
RUN_CONDITIONS: Homo sapiens, HCT-116, 48 h, read-out: LC50
Kindly answer with a numeric value in µM, unit omitted.

// query Assign CC50 to the following record: O=C1/C(=C/C(Cl)=C/c2ccc([N+](=O)[O-])cc2)SC(=S)N1/N=C\C(Cl)=C\c1ccc([N+](=O)[O-])cc1 [Compound 2c]
// result 23.3

// query Provide measured CC50 value, entry: O=C(O)C(Cc1ccccc1)N1C(=O)/C(=C/C(Cl)=C/c2ccc([N+](=O)[O-])cc2)SC1=S (centres unmarked) [Compound 2j]
// result 56.7

// query Fill in reported CC50 for this entry: O=C1NC(=S)S/C1=C\C(Cl)=C\c1ccc([N+](=O)[O-])cc1 [Compound 2b]
// result 33.7

// query Return CC50 for the following molecule: O=C1/C(=C/C(Cl)=C/c2ccc([N+](=O)[O-])cc2)SC(=S)N1c1ccc(O)cc1 [Compound 2f]
// result 6.92

----------
Can you tell me SI (selectivity index), LC50 for the items I'm about to list?
System: CNS Cancer subpanel
ASSAY_NOTES: cells
RUN_CONDITIONS: full panel MG_MID / CNS Cancer subpanel MG_MID
Kindly provide the number alone.

// query State, in one line, measured SI (selectivity index), LC50 of O=C1NC(=S)S/C1=C\C(Cl)=C\c1ccc([N+](=O)[O-])cc1 [Compound 2b]
// result 0.96

// query Return SI (selectivity index), LC50 for the following compound: O=C1/C(=C/C(Cl)=C/c2ccc([N+](=O)[O-])cc2)SC(=S)N1c1ccc(O)cc1 [Compound 2f]
// result 1.04

// query For the compound O=C1/C(=C/C(Cl)=C/c2ccc([N+](=O)[O-])cc2)SC(=S)N1/N=C\C(Cl)=C\c1ccc([N+](=O)[O-])cc1 [Compound 2c] , give its measured SI (selectivity index), LC50 value.
// result 0.92

// query Tell me measured SI (selectivity index), LC50 for O=C(O)CCN1C(=O)/C(=C/C(Cl)=C/c2ccc([N+](=O)[O-])cc2)SC1=S [Compound 2h] please.
// result 0.77

// query Input O=C(O)C(Cc1ccccc1)N1C(=O)/C(=C/C(Cl)=C/c2ccc([N+](=O)[O-])cc2)SC1=S (centres unmarked) [Compound 2j] , output reported SI (selectivity index), LC50.
// result 10.25

----------
Tested on: SK-MEL-28
ASSAY_NOTES: cells
RUN_CONDITIONS: Homo sapiens, SK-MEL-28, 48 h, read-out: LC50
READOUT_KIND: CC50 (µM)
Please respond with the number in µM and leave the unit unwritten.

// query Provide one value: measured CC50 of O=C(O)C(Cc1ccccc1)N1C(=O)/C(=C/C(Cl)=C/c2ccc([N+](=O)[O-])cc2)SC1=S (stereo not shown) [Compound 2j]
// result 11.6

// query Note CC50 for the compound shown: O=C(O)CCN1C(=O)/C(=C/C(Cl)=C/c2ccc([N+](=O)[O-])cc2)SC1=S [Compound 2h]
// result 89.5

// query Return CC50 for the following compound: O=C1NC(=S)S/C1=C\C(Cl)=C\c1ccc([N+](=O)[O-])cc1 [Compound 2b]
// result 25.9

----------
Tested on: Colo 205
READOUT_KIND: GI50 (µM)
Give just the number in µM; leave the unit off.

// query Consider the molecule O=C(O)CCN1C(=O)/C(=C/C(Cl)=C/c2ccc([N+](=O)[O-])cc2)SC1=S [Compound 2h] and give its recorded GI50.
// result 0.35

// query Using the record for O=C1/C(=C/C(Cl)=C/c2ccc([N+](=O)[O-])cc2)SC(=S)N1/N=C\C(Cl)=C\c1ccc([N+](=O)[O-])cc1 [Compound 2c] , state its measured GI50.
// result 56.2

// query Give the value of GI50 reported for the following: O=C1NC(=S)S/C1=C\C(Cl)=C\c1ccc([N+](=O)[O-])cc1 [Compound 2b]
// result 4.04

// query Determine its reported GI50: O=C(O)C(Cc1ccccc1)N1C(=O)/C(=C/C(Cl)=C/c2ccc([N+](=O)[O-])cc2)SC1=S (centres unmarked) [Compound 2j]
// result 2.45

// query Report GI50 for O=C1/C(=C/C(Cl)=C/c2ccc([N+](=O)[O-])cc2)SC(=S)N1c1ccc(O)cc1 [Compound 2f]
// result 4.34

----------
Answer each item with its documented log10 GI50.
System: MCF-7 (breast cancer)
Units before log transform: µM; reported quantity: GI50; transform: log10.

// query Quote log10 GI50 reported for O=C1NC(=O)/C(=C/C(Cl)=C/c2ccc([N+](=O)[O-])cc2)S1 please.
// result 1.26

// query Return the recorded log10 GI50 value; entry: O=C1/C(=C/C(Cl)=C/c2ccc([N+](=O)[O-])cc2)SC(=S)N1/N=C\C(Cl)=C\c1ccc([N+](=O)[O-])cc1
// result 0.56

// query Give log10 GI50 for O=C1/C(=C/C(Cl)=C/c2ccc([N+](=O)[O-])cc2)SC(=S)N1CCS(=O)(=O)O
// result 1.42

// query Return log10 GI50 for the following molecule: O=C1NC(=S)S/C1=C\C(Cl)=C\c1ccc([N+](=O)[O-])cc1
// result 0.68

// query Determine its reported log10 GI50: O=C(NN1C(=O)/C(=C/C(Cl)=C/c2ccc([N+](=O)[O-])cc2)SC1=S)c1csc2c1CCCC2
// result 0.65

// query Return log10 GI50 (reported value) for this molecule: O=C(O)CCC(C(=O)O)N1C(=O)/C(=C/C(Cl)=C/c2ccc([N+](=O)[O-])cc2)SC1=S (stereo not shown)
// result 1.33

// query // fetch log10 GI50 given entry O=C(O)CC(C(=O)O)N1C(=O)/C(=C/C(Cl)=C/c2ccc([N+](=O)[O-])cc2)SC1=S (stereo not shown)
// result 1.26

// query Input O=C(O)CCN1C(=O)/C(=C/C(Cl)=C/c2ccc([N+](=O)[O-])cc2)SC1=S , output reported log10 GI50.
// result 0.56

// query Using the record for O=C(O)CCCCCN1C(=O)/C(=C/C(Cl)=C/c2ccc([N+](=O)[O-])cc2)SC1=S , state its measured log10 GI50.
// result 0.24

// query Provide only the value of recorded log10 GI50 for O=C(Cc1ccccc1Nc1c(Cl)cccc1Cl)NN1C(=O)/C(=C/C(Cl)=C/c2ccc([N+](=O)[O-])cc2)SC1=S
// result 1.25
